Molecular target: CFTR-mediated chloride transport (Homo sapiens)
Assay: Corrector Assay A - membrane potential dye assay (enteroid cells)
Details: read-out: Corrector Assay A EC50; human intestinal enteroid cells, 18-24 h incubation; acute 10 μM forskolin + 300 nM ivacaftor
pEC50: −log10 of the molar value.
measured_parameter: pEC50

* CC(C)(C)c1ccc2c(n1)N1C[C@@H](CCC(c3ccc(N4CCOCC4)cn3)Nc3cccc(n3)S(=O)(=O)NC2=O)CC1(C)C (stereo partly drawn) [Compound 199] | > 6.00
* CC(C)(C)NCc1ccnc([C@@H]2CC[C@@H]3CN(c4nc(C(C)(C)C)ccc4C(=O)NS(=O)(=O)c4cccc(n4)N2)C(C)(C)C3)c1 (single isomer, unassigned) [Compound 61] | > 6.00
* CC1(C)CC2CN1c1nc(-n3ccc(OCCC4(C(F)(F)F)CC4)n3)ccc1C(=O)NS(=O)(=O)c1cccc(n1)NCCC2c1ccccc1 (single isomer, unassigned) [Compound 385] | > 6.00
